Provide the recorded IC50 for the entries that follow.
Target Or Test System: FGFR2 (Homo sapiens (Human), UniProt P21802)
Sequence (P21802 22-821): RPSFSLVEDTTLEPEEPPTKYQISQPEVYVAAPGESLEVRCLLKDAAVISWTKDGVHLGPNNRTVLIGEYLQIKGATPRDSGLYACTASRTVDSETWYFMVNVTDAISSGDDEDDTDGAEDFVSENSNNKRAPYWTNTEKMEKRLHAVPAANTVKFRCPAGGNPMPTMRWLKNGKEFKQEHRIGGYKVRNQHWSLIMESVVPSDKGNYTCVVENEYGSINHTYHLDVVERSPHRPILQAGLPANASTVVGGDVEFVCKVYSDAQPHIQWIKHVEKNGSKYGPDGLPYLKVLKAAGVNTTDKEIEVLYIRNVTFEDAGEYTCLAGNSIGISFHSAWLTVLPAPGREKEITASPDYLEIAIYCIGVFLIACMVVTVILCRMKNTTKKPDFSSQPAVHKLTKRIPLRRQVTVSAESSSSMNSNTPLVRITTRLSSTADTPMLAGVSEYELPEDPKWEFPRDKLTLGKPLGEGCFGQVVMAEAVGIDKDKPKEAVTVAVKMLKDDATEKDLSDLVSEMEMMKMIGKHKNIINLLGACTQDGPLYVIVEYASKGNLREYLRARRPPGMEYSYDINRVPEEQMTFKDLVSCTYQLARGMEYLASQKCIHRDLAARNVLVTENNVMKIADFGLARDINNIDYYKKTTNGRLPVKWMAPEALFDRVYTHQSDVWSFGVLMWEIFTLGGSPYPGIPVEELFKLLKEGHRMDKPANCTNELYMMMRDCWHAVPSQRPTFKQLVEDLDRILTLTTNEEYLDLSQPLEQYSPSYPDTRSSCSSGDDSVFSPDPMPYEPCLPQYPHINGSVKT
Measurement Protocol: Biochemical FGFR2 Caliper assay

Measured IC50 of C=C(C)C(=O)Nc1ccc(-c2c(-c3ccc(-n4cc(C(F)(F)F)cn4)cc3)c3c(N)ncnc3n2C)cc1 [Example 1226] : 1 to 100 µM

Measured IC50 of C#Cc1cc(C)c(-c2c(C3=CC[C@H](C(=O)N4CCC[C@H]4C)CC3)c3c(N)ncnc3n2C)cn1 [Example 1249] : 0.25 to 1 µM

Measured IC50 of C=C(C)C(=O)Nc1ccc(-c2c(C3=CC[C@](C)(C(=O)N4CCCC4)CC3)c3c(N)ncnc3n2C)cc1 [Example 1026] : 1 to 100 µM

Measured IC50 of Cc1ccnc(Oc2ccc(-c3c(-c4ccc(NCC#N)cc4)n(C)c4ncnc(N)c34)cc2F)n1 [Example 1266] : 1 to 100 µM

Measured IC50 of C#Cc1ccc(-c2c(-c3ccc(Oc4nccc(C)n4)c(F)c3)c3c(C)ncnc3n2C)c(C)n1 [Example 1174] : 1 to 100 µM

###

Target Or Test System: FGFR2 (Homo sapiens (Human))
Measurement Protocol: FGFR2 Biochemical Caliper Assay
Reported Property: IC50

For the compound C=CC(=O)N1CCC(c2c(-c3ccc(Oc4cccc(C)n4)cc3)c3c(N)ncnc3n2C)C1 (stereo not shown) , the measured IC50 on FGFR2 (Homo sapiens (Human)) was < 100 nM

For the compound `C=C(C)C(=O)Nc1ccc(-c2c(-c3ccc(C(=O)N4CC[C@@H](OC)C4)cc3)c3c(N)ncnc3n2C)cc1` , the measured IC50 on FGFR2 (Homo sapiens (Human)) was 250 to 1000 nM

For the compound `C=C(C)C(=O)Nc1ccc(-c2c(-c3ccc(N4CCNC4=O)cc3)c3c(N)ncnc3n2C)cc1` , the measured IC50 on FGFR2 (Homo sapiens (Human)) was 250 to 1000 nM

For the compound C=C(C)C(=O)Nc1ccc(-c2c(C3=C(F)CC(C(=O)N4CCCC4)CC3)c3c(N)ncnc3n2C)cc1 (stereo not shown) , the measured IC50 on FGFR2 (Homo sapiens (Human)) was 1000 to 100000 nM

###

Provide the recorded IC50 for the entries that follow.
Target Or Test System: FGFR2 (Homo sapiens (Human))
Measurement Protocol: FGFR2 Biochemical Caliper Assay

Measured IC50 of C=C(C)C(=O)Nc1ccc(-c2c(-c3ccn(Cc4cccc(C)n4)c(=O)c3)c3c(N)ncnc3n2C)cc1 [Example 488] : 1000 to 100000 nM

Measured IC50 of C=C(C)C(=O)N(C)c1ccc(-c2c(-c3ccc(Oc4cccc(C)n4)cc3)c3c(N)ncnc3n2C)cc1 [Example 414] : 100 to 250 nM

Measured IC50 of C=CC(=O)N[C@H]1C[C@@H](n2cc(-c3c(-c4ccc(Oc5ccccc5)cc4)c4c(N)ncnc4n3C)cn2)C1 [Example 606] : < 100 nM

Measured IC50 of C=CC(=O)N1CCC(c2c(-c3ccc(-c4cnn(C)c4)cc3)c3c(N)ncnc3n2C)C1 (centres unmarked) [Example 766] : 250 to 1000 nM

Measured IC50 of C=CC(=O)N1CCC(c2c(-c3ccc(N4CCCC4)cc3)c3c(N)ncnc3n2C)C1 (centres unmarked) [Example 719] : < 100 nM

###

Target Or Test System: UniProt:P21802
Measurement Protocol: Biochemical FGFR2 Caliper assay
pIC50: −log10 of the molar value.
Provide the recorded pIC50 for the entries that follow.

Measured pIC50 of C#Cc1ccc(-c2c(-c3ccc(Oc4nccc(C)n4)c(F)c3)c3c(N)ncnc3n2C)c(CC)n1 [Example 1243] : > 7.00

Measured pIC50 of C#Cc1cc(C)c(-c2c(C3=CC[C@H](C(=O)N4CCC[C@H]4C#N)CC3)c3c(N)ncnc3n2C)c(C)n1 (atropisomer, axis not shown) [Example 1469] : > 7.00

Measured pIC50 of C#Cc1cc(C)c(-c2c(C3=CC[C@@H](C(=O)N4CCC[C@@H]4C)CC3)c3c(N)ncnc3n2C)cn1 (single isomer, unassigned) [Example 1210] : > 7.00

Measured pIC50 of C#Cc1cc(C)c(-c2c(-c3ccc(Oc4nccc(C)n4)cn3)c3c(N)ncnc3n2C)cn1 [Example 1327] : > 7.00

Measured pIC50 of C=C(C)C(=O)Nc1ccc(-c2c(C3=CC[C@H](S(=O)(=O)N4CCCC4)CC3)c3c(N)ncnc3n2C)c(C)c1 [Example 1116] : 6.60 to 7.00

Measured pIC50 of C=C(C)C(=O)Nc1ccc(-c2c(-c3ccc4c(c3)NCCN4C)c3c(N)ncnc3n2C)cc1 [Example 1267] : 4.00 to 6.00

Measured pIC50 of C=CC(=O)Nc1ccc(-c2c(-c3cnsc3)c3c(N)ncnc3n2C)cc1 [Example 1150] : > 7.00

Measured pIC50 of C=C(C)C(=O)Nc1ccc(-c2c(-c3ccc4nn(C)cc4c3)c3c(N)ncnc3n2C)cc1 [Example 1122] : > 7.00

###

Target Or Test System: FGFR2 (Homo sapiens (Human), UniProt P21802)
Measurement Protocol: FGFR2 Biochemical Caliper Assay
Provide the recorded IC50 for the entries that follow.

Measured IC50 of `C=C(C)C(=O)Nc1ccc(-c2c(-c3ccc(Oc4cccc(C)n4)cc3)c3c(N)ncnc3n2CCN2CCN(C)CC2)cc1` : < 100 nM

Measured IC50 of `C=CC(=O)Nc1c(F)cc(-c2c(-c3ccc(C(=O)N4CCCC4)cc3)c3c(N)ncnc3n2C)cc1F` : < 100 nM

Measured IC50 of C=CC(=O)Nc1ccc(-c2c(C3=CCC(C(=O)N(C)C)CC3)c3c(N)ncnc3n2C)cc1 (centres unmarked) : < 100 nM

Measured IC50 of `C=C(C)C(=O)Nc1ccc(-c2c(-c3ccc(C(=O)NCC4CCC4)c(C(C)=O)c3)c3c(N)ncnc3n2C)cc1` : 100 to 250 nM

Measured IC50 of `C=C(C)C(=O)Nc1ccc(-c2c(-c3ccc(C(=O)N4CCC[C@@H](OC)C4)cc3)c3c(N)ncnc3n2C)cc1` : 250 to 1000 nM

Measured IC50 of `C=CC(=O)Nc1ccc(-c2c(-c3ccc(C(=O)N4CCCC4)cc3)c3c(N)ncnc3n2C)cc1F` : < 100 nM

Measured IC50 of `C=CC(=O)N1CC=C(c2c(-c3ccc(Oc4cccc(C)n4)c(OC)c3)c3c(N)ncnc3n2C)C1` : 100 to 250 nM

Measured IC50 of `C=C(C)C(=O)Nc1ccc(-c2c(-c3ccc(Oc4nccc(C)n4)c(OC)c3)c3c(N)ncnc3n2C)cc1` : 100 to 250 nM

Measured IC50 of `C=CC(=O)N1CC=C(c2c(-c3ccc(Oc4ccccc4)cc3)c3c(N)ncnc3n2C)CC1` : < 100 nM

Measured IC50 of `C=C(C)C(=O)Nc1ccc(-c2c(-c3ccc(C(=O)NCC(F)(F)F)c(OC)c3)c3c(N)ncnc3n2C)cc1` : < 100 nM

Measured IC50 of `C=C(C)C(=O)Nc1ccc(-c2c(-c3ccc(Oc4ncc(OC)cn4)cc3)c3c(N)ncnc3n2C)cc1` : 250 to 1000 nM

Measured IC50 of `C=C(CN(C)C)C(=O)Nc1ccc(-c2c(-c3ccc(C(=O)N4CCCC4)cc3)c3c(N)ncnc3n2C)cc1` : < 100 nM

Measured IC50 of `Cn1c(-c2ccc(NC(=O)C3=CCC3)cc2)c(-c2ccc(C(=O)NCC3CCC3)c(F)c2)c2c(N)ncnc21` : < 100 nM

Measured IC50 of `C=CC(=O)N[C@H]1CC[C@@H](c2c(-c3ccc(Oc4cccc(C)n4)c(OC)c3)c3c(N)ncnc3n2C)CC1` : 1000 to 100000 nM

Measured IC50 of C=CC(=O)N1CCC(c2c(-c3ccc(Cn4ccc(C)n4)cc3)c3c(N)ncnc3n2C)C1 (centres unmarked) : < 100 nM

Measured IC50 of `C=C(C)C(=O)Nc1ccc(-c2c([C@H]3CC[C@H](C(=O)N4CCCC4)CC3)c3c(N)ncnc3n2C)cc1` : 1000 to 100000 nM

Measured IC50 of `C=C(C)C(=O)Nc1ccc(-c2c(-c3ccc4c(c3)CN(C)C4=O)c3c(N)ncnc3n2C)cc1` : 1000 to 100000 nM

Measured IC50 of `C=C(C)C(=O)Nc1ccc(-c2c(-c3ccc(C(=O)N(C)CC4COC4)cc3)c3c(N)ncnc3n2C)c(F)c1` : 250 to 1000 nM

Measured IC50 of `C=CC(=O)N1CCC=C(c2c(-c3ccc(Oc4cccc(C)n4)c(OC)c3)c3c(N)ncnc3n2C)C1` : 1000 to 100000 nM

Measured IC50 of `C=C(C)C(=O)Nc1ccc(-c2c(-c3ccc(OC4CCCC4)cc3)c3c(N)ncnc3n2C)cc1` : < 100 nM

Measured IC50 of `C=C(C)C(=O)Nc1ccc(-c2c(-c3ccc(C(=O)NCC(C)(C)CO)cc3)c3c(N)ncnc3n2C)cc1` : < 100 nM

Measured IC50 of `C=C(C)C(=O)Nc1ccc(-c2c(-c3ccc(=O)n(Cc4ccccc4)c3)c3c(N)ncnc3n2C)cc1` : 1000 to 100000 nM

Measured IC50 of `C=C(C)C(=O)Nc1ccc(-c2c(-c3ccc(Oc4cccc(OC)n4)cc3)c3c(N)ncnc3n2C)cc1` : < 100 nM

Measured IC50 of `C=C(C)C(=O)Nc1ccc(-c2c(-c3ccc(C(=O)N4CCCC4)cc3)c3c(N)ncnc3n2C)cc1OC` : 1000 to 100000 nM

Measured IC50 of `C=C(C)C(=O)Nc1ccc(-c2c(-c3ccc(C(=O)N4CCC5(COC5)C4)cc3)c3c(N)ncnc3n2C)cc1` : 1000 to 100000 nM

Measured IC50 of `C=C(C)C(=O)Nc1ccc(-c2c(-c3ccc(C(=O)c4nccc(C)n4)cc3C)c3c(N)ncnc3n2C)cc1` : 100 to 250 nM
